- System: 695427-040-R-J1-PDC complex spheroid viability
- methodSummary: Anticancer human tumor 695427-040-R-J1-PDC patient-derived colon adenocarcinoma cell line growth inhibition [RAS]
- conditionDetails: second compound 0.00949 µM; first compound 0.0316 µM; stronger effect = lower value
Some molecules, each annotated with its measured viability, T/C.
Express your answer in %, writing the number without its unit.

Use these answered entries as a reference point.
C=CC(=O)Nc1cc(Nc2nccc(-c3cn(C)c4ccccc34)n2)c(OC)cc1N(C)CCN(C)C + CCn1c(-c2cc(N3CCN(C)CC3)cnc2C(C)OC)c2c3cc(ccc31)-c1csc(n1)CC(NC(=O)C1CC1C)C(=O)N1CCCC(N1)C(=O)OCC(C)(C)C2 :: 68.9
CCN1CCN(Cc2ccc(Nc3ncc(F)c(-c4cc(F)c5nc(C)n(C(C)C)c5c4)n3)nc2)CC1 + CCn1c(-c2cccnc2C(C)OC)c2c3cc(ccc31)N1CCOC(CC(NC(=O)C(C(C)C)N(C)C(=O)C3(F)CCN(C(=O)C#CC(C)(C)N(C)C)CC3)C(=O)N3CCCC(N3)C(=O)OCC(C)(C)C2)C1 :: 87.1
CC(C)n1nc(-c2ccc3oc(N)nc3c2)c2c(N)ncnc21 + CCn1c(-c2cccnc2C(C)OC)c2c3cc(ccc31)N1CCOC(CC(NC(=O)C(C(C)C)N(C)C(=O)C3(F)CCN(C(=O)C#CC(C)(C)N(C)C)CC3)C(=O)N3CCCC(N3)C(=O)OCC(C)(C)C2)C1 :: 73.5
CC(C)NCC(C(=O)N1CCN(c2ncnc3c2C(C)CC3O)CC1)c1ccc(Cl)cc1 (stereo not drawn) + CCn1c(-c2cccnc2C(C)OC)c2c3cc(ccc31)N1CCOC(CC(NC(=O)C(C(C)C)N(C)C(=O)C3(F)CCN(C(=O)C#CC(C)(C)N(C)C)CC3)C(=O)N3CCCC(N3)C(=O)OCC(C)(C)C2)C1 :: 113
C[C@@H](NC(=O)c1ncnc(N)c1Cl)c1ncc(C(=O)Nc2cc(C(F)(F)F)c(Cl)cn2)s1 + CCn1c(-c2cc(N3CCN(C)CC3)cnc2C(C)OC)c2c3cc(ccc31)-c1csc(n1)CC(NC(=O)C1CC1C)C(=O)N1CCCC(N1)C(=O)OCC(C)(C)C2 :: 95.3
Nc1ccn(C2OC(CO)C(O)C2(F)F)c(=O)n1 (stereo not drawn) + CCn1c(-c2cc(N3CCN(C)CC3)cnc2C(C)OC)c2c3cc(ccc31)-c1csc(n1)CC(NC(=O)C1CC1C)C(=O)N1CCCC(N1)C(=O)OCC(C)(C)C2 :: 60.9
CC(C)n1nc(-c2ccc3oc(N)nc3c2)c2c(N)ncnc21 + CCn1c(-c2cc(N3CCN(C)CC3)cnc2C(C)OC)c2c3cc(ccc31)-c1csc(n1)CC(NC(=O)C1CC1C)C(=O)N1CCCC(N1)C(=O)OCC(C)(C)C2 :: 46.4

--- query ---
### Prompt Report viability, T/C for CCN1CCN(Cc2ccc(Nc3ncc(F)c(-c4cc(F)c5nc(C)n(C(C)C)c5c4)n3)nc2)CC1 + CCn1c(-c2cc(N3CCN(C)CC3)cnc2C(C)OC)c2c3cc(ccc31)-c1csc(n1)CC(NC(=O)C1CC1C)C(=O)N1CCCC(N1)C(=O)OCC(C)(C)C2 tested on 695427-040-R-J1-PDC complex spheroid viability.
### Response 84.2

---

- Test system: 695427-040-R-J1-PDC complex spheroid viability
- methodSummary: Anticancer human tumor 695427-040-R-J1-PDC cell line growth inhibition [RAS];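 further: viability read after seven days of drug exposure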;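 on viability, T/C: 100% = DMSO vehicle control viability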
- conditionDetails: second compound 0.00949 µM; first compound 0.0316 µM; stronger effect = lower value
attributeMeasured: viability, T/C (%)
Report the value in % with no unit label.

CCC(CC)c1cc(NC2CCC(N)C2)n2nccc2n1 (configuration not stated) + CCn1c(-c2cccnc2C(C)OC)c2c3cc(ccc31)N1CCOC(CC(NC(=O)C(C(C)C)N(C)C(=O)C3(F)CCN(C(=O)C#CC(C)(C)N(C)C)CC3)C(=O)N3CCCC(N3)C(=O)OCC(C)(C)C2)C1 :: 82.2

### Prompt For the molecule C=CC(=O)Nc1cc(Nc2nccc(-c3cn(C)c4ccccc34)n2)c(OC)cc1N(C)CCN(C)C + CCn1c(-c2cccnc2C(C)OC)c2c3cc(ccc31)N1CCOC(CC(NC(=O)C(C(C)C)N(C)C(=O)C3(F)CCN(C(=O)C#CC(C)(C)N(C)C)CC3)C(=O)N3CCCC(N3)C(=O)OCC(C)(C)C2)C1 , what viability, T/C is on record?
### Response 87.6

---

Quick reference for IC50 among some molecules
- System: 695427-040-R-J1-PDC complex spheroid viability
- methodSummary: Anticancer human tumor 695427-040-R-J1-PDC cell line growth inhibition [RAS];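 further: viability read after seven days of drug exposure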
- conditionDetails: curve of first compound; second compound 0.00949 µM

Reference set, count: 7
CC(=O)OC12COC1CC(O)C1(C)C(=O)C(O)C3=C(C)C(OC(=O)C(O)C(NC(=O)OC(C)(C)C)c4ccccc4)CC(O)(C(OC(=O)c4ccccc4)C21)C3(C)C (stereo not drawn) + CCn1c(-c2cccnc2C(C)OC)c2c3cc(ccc31)N1CCOC(CC(NC(=O)C(C(C)C)N(C)C(=O)C3(F)CCN(C(=O)C#CC(C)(C)N(C)C)CC3)C(=O)N3CCCC(N3)C(=O)OCC(C)(C)C2)C1 :: > 10 µM
CC(C)n1nc(-c2ccc3oc(N)nc3c2)c2c(N)ncnc21 + CCn1c(-c2cc(N3CCN(C)CC3)cnc2C(C)OC)c2c3cc(ccc31)-c1csc(n1)CC(NC(=O)C1CC1C)C(=O)N1CCCC(N1)C(=O)OCC(C)(C)C2 :: 0.0342 µM
Nc1ccn(C2OC(CO)C(O)C2(F)F)c(=O)n1 (stereo not drawn) + CCn1c(-c2cc(N3CCN(C)CC3)cnc2C(C)OC)c2c3cc(ccc31)-c1csc(n1)CC(NC(=O)C1CC1C)C(=O)N1CCCC(N1)C(=O)OCC(C)(C)C2 :: 0.593 µM
C=CC(=O)Nc1cc(Nc2nccc(-c3cn(C)c4ccccc34)n2)c(OC)cc1N(C)CCN(C)C + CCn1c(-c2cc(N3CCN(C)CC3)cnc2C(C)OC)c2c3cc(ccc31)-c1csc(n1)CC(NC(=O)C1CC1C)C(=O)N1CCCC(N1)C(=O)OCC(C)(C)C2 :: 0.147 µM
CCN1CCN(Cc2ccc(Nc3ncc(F)c(-c4cc(F)c5nc(C)n(C(C)C)c5c4)n3)nc2)CC1 + CCn1c(-c2cccnc2C(C)OC)c2c3cc(ccc31)N1CCOC(CC(NC(=O)C(C(C)C)N(C)C(=O)C3(F)CCN(C(=O)C#CC(C)(C)N(C)C)CC3)C(=O)N3CCCC(N3)C(=O)OCC(C)(C)C2)C1 :: > 1 µM
CC1(C)CCC(Nc2ncc(C(F)(F)F)c(-c3c[nH]c4c(P(C)(C)=O)c(C#N)ccc34)n2)CN1 (stereo not drawn) + CCn1c(-c2cc(N3CCN(C)CC3)cnc2C(C)OC)c2c3cc(ccc31)-c1csc(n1)CC(NC(=O)C1CC1C)C(=O)N1CCCC(N1)C(=O)OCC(C)(C)C2 :: > 0.3 µM
CC(C)n1nc(-c2ccc3oc(N)nc3c2)c2c(N)ncnc21 + CCn1c(-c2cccnc2C(C)OC)c2c3cc(ccc31)N1CCOC(CC(NC(=O)C(C(C)C)N(C)C(=O)C3(F)CCN(C(=O)C#CC(C)(C)N(C)C)CC3)C(=O)N3CCCC(N3)C(=O)OCC(C)(C)C2)C1 :: > 0.1 µM

Next molecule, IC50 to be filled in.
### Prompt Name the recorded IC50 for CC(C)NCC(C(=O)N1CCN(c2ncnc3c2C(C)CC3O)CC1)c1ccc(Cl)cc1 (stereo not drawn) + CCn1c(-c2cccnc2C(C)OC)c2c3cc(ccc31)N1CCOC(CC(NC(=O)C(C(C)C)N(C)C(=O)C3(F)CCN(C(=O)C#CC(C)(C)N(C)C)CC3)C(=O)N3CCCC(N3)C(=O)OCC(C)(C)C2)C1 .
### Response > 10 µM

---

- System: 695427-040-R-J1-PDC complex spheroid viability
- methodSummary: Anticancer human tumor 695427-040-R-J1-PDC cell line growth inhibition [RAS];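 further: viability read after seven days of drug exposure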;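 on viability, T/C: 100% = DMSO vehicle control viability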
- conditionDetails: second compound 0.003 µM; first compound 0.1 µM; stronger effect = lower value
# viability, T/C listing for each entry below
Kindly provide the numeric value in % only, without the unit symbol.

The following compounds have reported results that may help.
C=CC(=O)N1CCN(c2nc(OCC3CCCN3C)nc3c(F)c(-c4nc(N)cc(C)c4C(F)(F)F)c(Cl)cc23)C(C)C1 (centres undefined) + CCn1c(-c2cc(N3CCN(C)CC3)cnc2C(C)OC)c2c3cc(ccc31)-c1csc(n1)CC(NC(=O)C1CC1C)C(=O)N1CCCC(N1)C(=O)OCC(C)(C)C2 :: 85
C=CC(=O)Nc1cc(Nc2nccc(-c3cn(C)c4ccccc34)n2)c(OC)cc1N(C)CCN(C)C + CCn1c(-c2cccnc2C(C)OC)c2c3cc(ccc31)N1CCOC(CC(NC(=O)C(C(C)C)N(C)C(=O)C3(F)CCN(C(=O)C#CC(C)(C)N(C)C)CC3)C(=O)N3CCCC(N3)C(=O)OCC(C)(C)C2)C1 :: 114
O=C(c1ccc(F)c(F)c1Nc1ccc(I)cc1F)N1CC(O)([C@@H]2CCCCN2)C1 + CCn1c(-c2cccnc2C(C)OC)c2c3cc(ccc31)N1CCOC(CC(NC(=O)C(C(C)C)N(C)C(=O)C3(F)CCN(C(=O)C#CC(C)(C)N(C)C)CC3)C(=O)N3CCCC(N3)C(=O)OCC(C)(C)C2)C1 :: 51.4

Could you now consider this next compound?
### Prompt Which viability, T/C is listed for Cc1nc(N2CCC3(CC2)COC(C)C3N)c(CO)nc1Sc1ccnc(N)c1Cl (centres undefined) + CCn1c(-c2cc(N3CCN(C)CC3)cnc2C(C)OC)c2c3cc(ccc31)-c1csc(n1)CC(NC(=O)C1CC1C)C(=O)N1CCCC(N1)C(=O)OCC(C)(C)C2 ?
### Response 76.7
